Ref: a melting point compilation (Tetko et al.; mined from patent text by program, amines drawn as free bases though some values may be those of a salt)

Items are presented alongside their recorded melting point.

>  <compound>
COC(=O)c1cc2c3cc([N+](=O)[O-])ccc3n(C)c2s1

>  <melting point>
269 to 271 °C

$$$$
>  <compound>
COc1cc(F)ccc1Oc1c(Cl)nc(C)nc1NS(=O)(=O)c1ccc(C(C)(C)C)cc1

>  <melting point>
164 to 165 °C

$$$$
>  <compound>
Cc1nc(-c2cc3cc(OCCNC[C@H](O)c4cccc(Cl)c4)ccc3o2)cs1

>  <melting point>
127 to 129 °C

$$$$
>  <compound>
COC(=O)c1cc(-c2ccc3c(c2)c2cc(-c4ccc(Cl)cc4Cl)c(=O)n(C)c2n3C)on1

>  <melting point>
280 to 281 °C

$$$$
>  <compound>
C=C1C(=O)CCC(C)(C)C1=O

>  <melting point>
115 to 116 °C

$$$$
>  <compound>
CC(C)c1ccc(C(=O)C2CCNCC2)cc1

>  <melting point>
55 to 57 °C

$$$$
>  <compound>
Cn1nc(-c2cc(S(=O)(=O)Cl)c(Cl)cc2F)c(Cl)c1C(F)(F)F

>  <melting point>
116 to 117 °C

$$$$
>  <compound>
CCN1CCN(c2ccc(-c3ccc4c(Nc5ccc(Sc6nccn6C)c(Cl)c5)c(C#N)cnc4c3)nc2)CC1

>  <melting point>
246 to 248 °C

$$$$
>  <compound>
COc1cc(Cc2nc(NC(C)C)c3c(C)c(C#N)sc3n2)cc(OC)c1OC

>  <melting point>
143 to 147 °C

$$$$
>  <compound>
Nc1c2c(nc3cc(C(F)(F)F)ccc13)CCSC2

>  <melting point>
253 to 259 °C

$$$$
>  <compound>
CCOC(=O)c1cc(-c2ccc(N)cc2)n(-c2ccc(F)cc2)n1

>  <melting point>
158 to 160 °C

$$$$
>  <compound>
CCN(CC)c1ccc2nc3c4ccccc4c(=Nc4ccccn4)cc-3oc2c1

>  <melting point>
169 to 170 °C

$$$$
>  <compound>
c1ccc([C@H]2C[C@@H]2Nc2cc(-c3ccco3)nc(-c3nccs3)n2)cc1 (relative stereo)

>  <melting point>
90 to 91.9 °C

$$$$
>  <compound>
C[C@@](N)(Cc1ccc(OC(F)(F)F)cc1)C(=O)Nc1cc(Cl)cc(Cl)c1

>  <melting point>
> 200 °C

$$$$
>  <compound>
CCOC(=O)C(SC)=C(O)C1C(C(=O)O)C1(C)C (stereo unspecified)

>  <melting point>
114 °C

$$$$
>  <compound>
Cc1nc2c(s1)-c1nc(Nc3ccc(N4CCOCC4)cc3)ncc1CC2

>  <melting point>
236 to 237 °C

$$$$
>  <compound>
CONC(NC(C)=O)C(=O)NCc1ccccc1 (stereo unspecified)

>  <melting point>
95 to 97 °C

$$$$
>  <compound>
O=c1ccoc2cc(OCCCNCC3COc4ccc(O)cc4O3)ccc12 (stereo unspecified)

>  <melting point>
186 to 189 °C

$$$$
>  <compound>
COC(=O)NCC1Cc2cc(Cl)cc(C3CCCCC3)c2O1 (stereo unspecified)

>  <melting point>
100 to 103 °C

$$$$
>  <compound>
CCCCCc1cc2c(nc(O)n2CC2CCNCC2)c(N)n1

>  <melting point>
246 to 249 °C

$$$$
>  <compound>
O=C(Nc1ncnc2c1ncn2C[C@@H]1O[C@H](CO)[C@@H](O)[C@H]1O)c1ccccc1

>  <melting point>
85 to 90 °C

$$$$
>  <compound>
N#Cc1ccc2c(c1)CN1C(=Nc3cccnc3)SC[C@@H]1C2

>  <melting point>
172 °C

$$$$
>  <compound>
CCCc1c(OCCCS(=O)(=O)c2ccc(C(=O)O)cn2)ccc(C(C)=O)c1O

>  <melting point>
177 to 179 °C

$$$$
>  <compound>
NC1(C(=O)O)C=CC(Br)=C(F)C1 (stereo unspecified)

>  <melting point>
180 °C

$$$$
>  <compound>
CC(=O)Nc1ccc(N2N=C(C)CC2=O)cc1

>  <melting point>
230 °C

$$$$
>  <compound>
CC(=O)OC(C)c1ccc2cc(OCc3ccccc3)ccc2c1 (stereo unspecified)

>  <melting point>
97 to 98 °C

$$$$
>  <compound>
Cc1nc(-c2ccc(C(F)(F)F)cc2)sc1Sc1ccc(Cc2nn[nH]n2)cc1

>  <melting point>
177 °C

$$$$
>  <compound>
c1ccc(CN2CCC3(CC(c4ccccc4)=NO3)C2)cc1 (stereo unspecified)

>  <melting point>
31 to 40 °C

$$$$
>  <compound>
COC1=C(Br)C(=O)O/C1=C\c1ccccc1C(F)(F)F

>  <melting point>
136 to 138 °C

$$$$
>  <compound>
CC1C(=O)Nc2ccc(Cl)cc2N1C1CC1 (racemic)

>  <melting point>
167 °C

$$$$
>  <compound>
CN(C)CCNc1ccc(CNS(C)(=O)=O)c2sc3ccccc3c(=O)c12

>  <melting point>
126 to 127 °C

$$$$
>  <compound>
CCCCCc1c(C(C)C)nc(C(C)C)c(CO)c1-c1ccc(C(C)C)cc1

>  <melting point>
42 to 44 °C

$$$$
>  <compound>
Cn1cc(-c2ncc(-c3ccc4cc(OCC#N)ccc4c3)o2)c2ccccc21

>  <melting point>
196 to 198 °C

$$$$
>  <compound>
CCOc1ccc(CN2C(=O)SC(S(=O)(=O)c3ccc(C)cc3)C2=O)c(OCC)c1 (stereo unspecified)

>  <melting point>
121 to 123 °C

$$$$
>  <compound>
CC(C)(C)c1cc(-c2noc(N)n2)cc(C(C)(C)C)c1O

>  <melting point>
202 to 204 °C

$$$$
>  <compound>
NC(=O)C1=NN(c2cccc(COCC3CCCCC3)c2)C(c2ccccc2F)N1 (stereo unspecified)

>  <melting point>
148 to 149 °C

$$$$
>  <compound>
CCC1=C(C)CN(C(=O)NC2COc3cc(OC)c(S(=O)(=O)NC(=O)NC)cc3C2)C1=O (stereo unspecified)

>  <melting point>
245 to 246 °C

$$$$
>  <compound>
Clc1cc(NCCc2ccccc2)c2ccccc2n1

>  <melting point>
132 to 133 °C

$$$$
>  <compound>
COc1ccc(O)c(CNc2cccs2)c1

>  <melting point>
109 to 110 °C

$$$$
>  <compound>
CCC1(CC)O[C@@H](C(=O)O)[C@H](c2ccccc2)N1C(=O)OC(C)(C)C

>  <melting point>
185 °C

$$$$
>  <compound>
CCN1c2ncc(CNc3cccc(N)c3)cc2C(=O)N(C)c2ccc(Cl)nc21

>  <melting point>
188 to 190 °C

$$$$
